Origin of values: ChEMBL document CHEMBL1287650

- Test system: Helicobacter pylori
- experiment-notes: Antibacterial activity against Helicobacter pylori SS1 assessed as inhibition of visible growth after 96 hrs by agar dilution method
- Format: functional
- experimental-parameters: SS1, 96 h
The following molecules are shown together with reported MIC values.
measured-endpoint: MIC (µg/mL)

1) COCc1cc2cc3ccc(=O)oc3cc2o1	50
2) CCCCOCc1cc2cc3ccc(=O)oc3cc2o1	50
3) COc1c2occc2c(N)c2ccc(=O)oc12	25
4) Cc1coc2cc3oc(=O)ccc3cc12	12.5
5) Cc1c2ccoc2cc2oc(=O)ccc12	12.5
6) CCCCOCc1c2ccoc2c(OC)c2oc(=O)ccc12	50
7) COc1c2occc2c([N+](=O)[O-])c2ccc(=O)oc12	1.56
8) O=c1cc(CBr)c2cc3ccoc3cc2o1	1.56
9) Cc1cc(=O)oc2cc3occc3cc12	0.39

* * *

- Tested on: Helicobacter pylori
- experiment-notes: Antibacterial activity against Helicobacter pylori SS1 assessed as inhibition of visible growth after 96 hrs by agar dilution method
- Type: functional
- experimental-parameters: SS1, 96 h
The following compounds are shown together with reported MIC values.
measured-endpoint: MIC

1) COc1c2occc2c(Cl)c2ccc(=O)oc12	> 50 µg/mL
2) COc1ccc(NCc2c3ccoc3c(OC)c3oc(=O)ccc23)cc1	12.5 µg/mL
3) CCc1cc(=O)oc2cc3occc3cc12	6.25 µg/mL
4) CCOCc1c2ccoc2c(OC)c2oc(=O)ccc12	> 50 µg/mL
5) O=C(O)COc1c2occc2cc2ccc(=O)oc12	> 50 µg/mL
6) O=c1ccc2cc3cc([N+](=O)[O-])oc3cc2o1	3.12 µg/mL
7) CCN(CC)Cc1c2ccoc2c(OC)c2oc(=O)ccc12	> 50 µg/mL

* * *

- System: Helicobacter pylori
- experiment-notes: Antibacterial activity against Helicobacter pylori SS1 assessed as inhibition of visible growth after 96 hrs by agar dilution method
- Format: functional
- experimental-parameters: SS1, 96 h
measured-endpoint: MIC (µg/mL)

1) O=c1ccc2c([N+](=O)[O-])c3ccoc3c(O)c2o1	25
2) CC(=O)Oc1c2occc2c([N+](=O)[O-])c2ccc(=O)oc12	25
3) COc1c2occc2c(CCl)c2ccc(=O)oc12	25
4) CCCc1cc(=O)oc2cc3occc3cc12	12.5
5) O=c1ccc2cc3ccoc3cc2o1 [PSORALEN]	6.25

* * *

- System: Helicobacter pylori
- experiment-notes: Antibacterial activity against Helicobacter pylori SS1 assessed as inhibition of visible growth after 96 hrs by agar dilution method
- Format: functional
- experimental-parameters: SS1, 96 h
The following molecules are shown together with reported MIC values.
measured-endpoint: MIC

1) COc1c2occc2c(S(=O)(=O)Oc2ccccc2)c2ccc(=O)oc12	> 50 µg/mL
2) O=c1cc(CO)c2cc3ccoc3cc2o1	0.78 µg/mL
3) O=c1ccc2cc3cc(Br)oc3cc2o1	6.25 µg/mL
4) COc1c2occc2c(/N=C/c2ccccc2)c2ccc(=O)oc12	> 50 µg/mL
5) CCCOCc1c2ccoc2c(OC)c2oc(=O)ccc12	> 50 µg/mL
6) O=c1cc(C(F)(F)F)c2cc3ccoc3cc2o1	12.5 µg/mL
7) CCOc1c2occc2cc2ccc(=O)oc12	> 50 µg/mL
8) O=c1cc(-c2ccccc2)c2cc3ccoc3cc2o1	12.5 µg/mL
9) COc1c2occc2c(CNc2ccc([N+](=O)[O-])cc2)c2ccc(=O)oc12	> 50 µg/mL
10) COc1c2occc2c(S(=O)(=O)Nc2ccc([N+](=O)[O-])cc2)c2ccc(=O)oc12	> 50 µg/mL
11) O=c1ccc2cc3ccoc3c(O)c2o1	> 50 µg/mL
12) CC(=O)OCc1cc(=O)oc2cc3occc3cc12	1.56 µg/mL

* * *

- System: Helicobacter pylori
- experiment-notes: Antibacterial activity against Helicobacter pylori SS1 assessed as inhibition of visible growth after 96 hrs by agar dilution method
- Type: functional
- experimental-parameters: SS1, 96 h
The following compounds are shown together with reported MIC values.
measured-endpoint: MIC (µg/mL)

1. COc1c2occc2cc2ccc(=O)oc12	25
2. O=Cc1cc(=O)oc2cc3occc3cc12	1.56
3. O=c1ccc2cc3cc(Cl)oc3cc2o1	6.25
4. Cc1ncc([N+](=O)[O-])n1CCO	0.5

* * *

- Tested on: Helicobacter pylori
- experiment-notes: Antibacterial activity against Helicobacter pylori SS1 assessed as inhibition of visible growth after 96 hrs by agar dilution method
- Format: functional
- experimental-parameters: SS1, 96 h
The following compounds are shown together with reported MIC values.
measured-endpoint: MIC

1) CCOCc1cc2cc3ccc(=O)oc3cc2o1	> 50 µg/mL
2) COc1c2occc2c(S(N)(=O)=O)c2ccc(=O)oc12	> 50 µg/mL
3) COc1c2occc2c(S(=O)(=O)OC)c2ccc(=O)oc12	> 50 µg/mL
4) CCOC(=O)COc1c2occc2cc2ccc(=O)oc12	> 50 µg/mL

* * *

- Test system: Helicobacter pylori
- experiment-notes: Antibacterial activity against Helicobacter pylori SS1 assessed as inhibition of visible growth after 96 hrs by agar dilution method
- Type: functional
- experimental-parameters: SS1, 96 h
measured-endpoint: MIC

1. COc1c2occc2c(Br)c2ccc(=O)oc12	> 50 µg/mL
2. CCN(CC)Cc1cc2cc3ccc(=O)oc3cc2o1	> 50 µg/mL
3. COc1ccc(NS(=O)(=O)c2c3ccoc3c(OC)c3oc(=O)ccc23)cc1	> 50 µg/mL
4. CC(=O)Oc1c2occc2cc2ccc(=O)oc12	> 50 µg/mL
5. CCN(CC)S(=O)(=O)c1c2ccoc2c(OC)c2oc(=O)ccc12	> 50 µg/mL
6. COCc1c2ccoc2c(OC)c2oc(=O)ccc12	> 50 µg/mL
7. CC(=O)OCc1cc2cc3ccc(=O)oc3cc2o1	> 50 µg/mL
